assay summary: chemical genetic growth profiling, strain panel (AID 1159580);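 further: tested at 20 µM; growth read once vehicle control cultures reached saturation at 30 °C; 1 = growth at the plate median or of vehicle wells; lower values mean less growth of the strain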
test context: S. cerevisiae deletion strains, growth OD, locus YMR129W, hits give low values
Hit rate of the full screen: of about 5,500 compounds, about 2,000 (36%) were called active. Another 18% or so got no clear call; they are omitted. This is one part of the list.
Please go through the items and note down their normalized growth.

Example molecules with recorded normalized growth:
CN1CCCC(n2nc(Cc3ccc(Cl)cc3)c3ccccc3c2=O)CC1 (centres undefined) ... 1 (inactive)
CC1(C)C2CC[C@]3(C)C(C(=O)C=C4[C@@H]5C[C@@](C)(C(=O)O)CC[C@]5(C)CC[C@]43C)[C@@]2(C)CC[C@@H]1OC(=O)CCC(=O)O (some centres undefined) ... 0.99 (inactive)
CCCCCC(=O)O[C@]1(C(C)=O)CCC2C3CCC4=CC(=O)CC[C@]4(C)C3CC[C@@]21C (some centres undefined) ... 1 (inactive)

Here's the next entry for you.
input: Specify measured normalized growth for CC1(C)C2CC[C@]3(C)C(C(=O)C=C4[C@H]5C[C@@](C)(C(=O)O)CC[C@]5(C)CC[C@]43C)[C@@]2(C)CC[C@@H]1O (some centres undefined) .
output: 1.01 (inactive)

----------
assay summary: chemical genetic growth profiling, strain panel (AID 1159580)
test context: S. cerevisiae deletion strains, growth OD, locus YKL160W, strain elf1
Out of some 5,500 compounds screened, about 2,000 (36%) were called active. About 18% were inconclusive and are not listed. Rule as the data show it: active = normalized growth mostly below about 0.91 (no sharp cut-off); inconclusive = no clear call, values can overlap the other calls; inactive = mostly above about 0.92. The list shows a part of the results.
Your reply should match one of these outcome classes. active, inactive

Worked examples follow.
NC(N)=NOCC[C@H](N)C(=O)O ... inactive
COc1ccc(C[C@H]2NC[C@H](O)[C@H]2OC(C)=O)cc1 ... active

input: Can you look up the reported call for N=c1nc(N2CCCCC2)cc(N)n1O for me?
output: inactive

input: Can you look up the reported call for CC(=O)O[C@]1(C(C)=O)CCC2C3C[C@H](C)C4=CC(=O)CC[C@]4(C)C3CC[C@@]21C (stereo not given in full) for me?
output: inactive

input: Can you look up the reported call for CC(=O)O[C@]1(C(C)=O)CCC2C3C=C(Cl)C4=CC(=O)CC[C@]4(C)C3CC[C@@]21C (stereo not given in full) for me?
output: inactive

input: Can you look up the reported call for OCCN(CCO)c1nc(N2CCCCC2)c2nc(N(CCO)CCO)nc(N3CCCCC3)c2n1 for me?
output: inactive

input: Can you look up the reported call for CC(=O)O[C@]1(C(C)=O)CCC2C3C=C(C)C4=CC(=O)CCC4(C)C3CCC21C (stereo not given in full) for me?
output: inactive

input: Can you look up the reported call for CN=C(NC#N)NCCSCc1nc[nH]c1C for me?
output: inactive

input: Can you look up the reported call for CNC1(C)C2CCC(C2)C1(C)C (stereo not given) for me?
output: inactive

input: Can you look up the reported call for CC(C)CC1C(=O)N2CCC[C@H]2C2(O)O[C@](NC(=O)C3C=C4c5cccc6[nH]c(Br)c(c56)C[C@H]4N(C)C3)(C(C)C)C(=O)N12 (stereo not given in full) for me?
output: inactive

----------
assay summary: chemical genetic growth profiling, strain panel (AID 1159580);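 further: tested at 20 µM; growth read once vehicle control cultures reached saturation at 30 °C; 1 = growth at the plate median or of vehicle wells; lower values mean less growth of the strain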
test context: S. cerevisiae deletion strains, growth OD, locus YIL073C, strain SPO22, hits give low values
Hit rate of the full screen: of about 5,500 compounds, about 2,000 (36%) were called active. Not shown: some 18% with an inconclusive outcome. Some of the results follow.
Please go through the items and note down their normalized growth.

O=C1C[C@@H](c2ccccc2)Oc2cc(O)cc(O)c21 ... 0.91 (inactive)
CC(=C(CCOP(=O)(O)O)SC(=O)c1ccccc1)N(C=O)Cc1cnc(C)nc1N ... 1.05 (inactive)
Cc1cc(=O)c2c(O)cc(O)c(C)c2o1 ... 0.967 (inactive)
O=C1C[C@@H](c2ccc(O)cc2)Oc2cc(O)cc(O)c21 ... 1.05 (inactive)
C[N+](C)(C)CC(=O)[O-] ... 0.94 (inactive)

Could I get normalized growth for every one of these entries?
1. COc1ccc(C(=O)c2ccccc2O)c(O)c1
2. COc1cc(O)c(C(=O)c2ccccc2)cc1O
3. COc1ccc(C[C@H]2NC[C@H](O)[C@H]2OC(C)=O)cc1
4. CCCCOc1ccc(OCCCN2CCOCC2)cc1
5. OCc1ccccc1O[C@@H]1O[C@H](CO)[C@@H](O)[C@H](O)[C@H]1O
6. OC(CCN1CCCCC1)(c1ccccc1)c1ccccc1

output:
1: 0.84 (inactive); 2: 1 (inactive); 3: 0.119 (active); 4: 0.804 (inactive); 5: 1.02 (inactive); 6: 1.09 (inactive)

Could I get normalized growth for every one of these entries?
1. COc1ccc(C2CC(=O)c3ccc(OC)cc3O2)cc1 (stereo unspecified)
2. NC(=O)N1c2ccccc2CC(=O)c2ccccc21
3. C[C@@H]1O[C@@H](O[C@H]2[C@@H](Oc3cc(O)c4c(c3)O[C@H](c3ccc(O)cc3)CC4=O)O[C@H](CO)[C@@H](O)[C@@H]2O)[C@H](O)[C@H](O)[C@H]1O
4. Cc1c(O)cc(O)c2c(=O)c(-c3ccc(O)cc3)coc12
5. COc1ccc2c(c1)[C@@]1(C)CCC(=O)C[C@H]1CC2
6. COc1cc(OC)c2c(c1)OC(c1ccccc1)CC2=O (stereo unspecified)
7. CC(=O)O[C@H]1C(=O)[C@@]2(C)C([C@H](OC(=O)c3ccccc3)[C@]3(O)C[C@H](OC(=O)[C@H](O)[C@@H](NC(=O)c4ccccc4)c4ccccc4)C(C)=C1C3(C)C)[C@]1(OC(C)=O)CO[C@@H]1C[C@@H]2O (stereo partly specified)

output:
0.772 (inactive)
0.955 (inactive)
0.946 (inactive)
1.07 (inactive)
0.964 (inactive)
1.03 (inactive)
1.04 (inactive)

Could I get normalized growth for every one of these entries?
1. COc1c(O)cc2oc3cc(O)c(CC=C(C)C)c(O)c3c(=O)c2c1CC=C(C)C
2. Nc1nc2[nH]c(=O)c(=O)[nH]c2c(=O)[nH]1
3. COc1ccc([C@@H]2CC(=O)c3c(O)cc(O)cc3O2)cc1O

output:
0.695 (inactive)
1.04 (inactive)
1.05 (inactive)

----------
Please go through the items and note down their normalized growth.
assay summary: chemical genetic growth profiling, strain panel (AID 1159580);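 further: tested at 20 µM; growth read once vehicle control cultures reached saturation at 30 °C; 1 = growth at the plate median or of vehicle wells; lower values mean less growth of the strain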
test context: S. cerevisiae deletion strains, growth OD, locus YOR265W, strain rbl2, hits give low values
Out of some 5,500 compounds screened, about 2,000 (36%) were called active. Another 18% or so got no clear call; they are omitted. This is one part of the list.
Numbers only.

Example molecules with recorded normalized growth:
CC(C)CC1C(=O)N2CCC[C@H]2C2(O)O[C@](NC(=O)C3C=C4c5cccc6[nH]c(Br)c(c56)C[C@H]4N(C)C3)(C(C)C)C(=O)N12 (some centres undefined) ... 0.971
C[C@@H](N)CO ... 0.992

Could I get normalized growth for every one of these entries?
1. CC(=O)O[C@H]1C(=O)[C@@]2(C)C([C@H](OC(=O)c3ccccc3)[C@]3(O)C[C@H](OC(=O)[C@H](O)[C@@H](NC(=O)c4ccccc4)c4ccccc4)C(C)=C1C3(C)C)[C@]1(OC(C)=O)CO[C@@H]1C[C@@H]2O (some centres undefined)
2. CC(=O)OCC(CCn1cnc2cnc(N)nc21)COC(C)=O

output:
1. 0.999
2. 0.98

Could I get normalized growth for every one of these entries?
1. N=c1nc(N2CCCCC2)cc(N)n1O
2. COC1C(O)C(O)C(O)[C@@H](O)C1O (some centres undefined)

output:
1: 0.989; 2: 0.989

Could I get normalized growth for every one of these entries?
1. CC(=O)O[C@H]1C(=O)[C@@]2(C)C([C@H](OC(=O)c3ccccc3)[C@]3(O)C[C@H](O)C(C)=C1C3(C)C)[C@]1(OC(C)=O)CO[C@@H]1C[C@@H]2O (some centres undefined)
2. CCCCCC(C)N (centres undefined)
3. CNC1(C)C2CCC(C2)C1(C)C (centres undefined)

output:
[0.969, 1.02, 0.989]

----------
assay summary: chemical genetic growth profiling, strain panel (AID 1159580);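 further: tested at 20 µM; growth read once vehicle control cultures reached saturation at 30 °C; 1 = growth at the plate median or of vehicle wells; lower values mean less growth of the strain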
test context: S. cerevisiae deletion strains, growth OD, locus YDR334W, strain swr1, hits give low values
Among all 5,500 compounds or so, about 2,000 (36%) were called active. Roughly 18% stayed inconclusive and do not appear here. Some of the results follow.
measurement kind: normalized growth
One number for each entry.

CN1C2CC3C[C@H]1C(O3)C2O (some centres undefined) ... 1.02

Could I get normalized growth for every one of these entries?
1. COc1cc(O)c2c(=O)cc(C)oc2c1CC=C(C)C
2. CCCCOc1ccc(CC(=O)NO)cc1
3. O=C1CC(c2ccc(O)c(O)c2)Oc2cc(O)cc(O)c21 (centres undefined)
4. NCC1CCCCC1CC(=O)O (centres undefined)
5. CCCCCCCCCCCCC[N+](C)(C)Cc1ccccc1
6. CCCCCC(=O)O[C@]1(C(C)=O)CCC2C3CCC4=CC(=O)CC[C@]4(C)C3CC[C@@]21C (some centres undefined)

output:
1: 0.984; 2: 1.02; 3: 1.01; 4: 1.02; 5: 0.0601; 6: 0.999

Could I get normalized growth for every one of these entries?
1. CCCCOc1ccc(OCCCN2CCOCC2)cc1
2. COC(=O)COc1cc(Cl)c(Cl)cc1Cl
3. COc1ccc2cc1Oc1ccc(cc1)C[C@H]1c3cc(c(OC)cc3CCN1C)Oc1c(OC)c(OC)cc3c1[C@H](C2)N(C)CC3
4. NC(=O)N1c2ccccc2CC(=O)c2ccccc21
5. Cc1cccc(Nc2cc(Cl)nc(SCC(=O)O)n2)c1C
6. CCCCOc1ccc(C(=O)CCN2CCCCC2)cc1
7. OCc1ccccc1O[C@@H]1O[C@H](CO)[C@@H](O)[C@H](O)[C@H]1O

output:
[0.947, 1, 1.01, 0.95, 0.969, 0.851, 0.925]

Could I get normalized growth for every one of these entries?
1. COc1cc(OC)c2c(c1)O[C@H](c1ccc(OC)c(OC)c1)[C@@H](O)C2
2. CC(C)(N=NC(C)(C)C(=N)N)C(=N)N
3. O=[N+]([O-])O[C@H]1CO[C@H]2[C@@H]1OC[C@H]2O[N+](=O)[O-]
4. CN1CCCC(n2nc(Cc3ccc(Cl)cc3)c3ccccc3c2=O)CC1 (centres undefined)
5. CC(=O)O[C@]1(C(C)=O)CCC2C3C=C(Cl)C4=CC(=O)CC[C@]4(C)C3CC[C@@]21C (some centres undefined)
6. Cc1ccc(O)cc1

output:
[0.977, 1.03, 0.991, 0.981, 1.01, 1.02]
